List of phenotypically active values.
Tested on: HepG2-ACTB-RAB5A
experimental.protocol: phenotypically active (imaging signature differs from DMSO and reproducible) at any of 0.3-9 uM (binary (1 = active, 0 = inactive)); higher = active
measurement.parameters: treatment time: 24 h

{"columns": ["smiles.notation", "phenotypically active"],
 "data": [
  ["O=c1c(O)c(-c2ccc(O)cc2)oc2cc(O)cc(O)c12", 0],
  ["CCOC(=O)Nc1ccc2c(c1)N(C(=O)CCN1CCOCC1)c1ccccc1S2", 0],
  ["COc1c(C)cnc(Cn2cc(C#CCC(C)(C)O)c3c(Cl)nc(N)nc32)c1C", 1],
  ["C=CC(=O)Nc1cccc(Nc2nc(Nc3ccc(Oc4ccnc(C(=O)NC)c4)cc3)ncc2F)c1", 1],
  ["CC1=NN(c2ccc(C(=O)O)cc2)C(=O)/C1=C\\c1ccc(-c2cc(C)c(C)cc2[N+](=O)[O-])o1", 0],
  ["C[C@@H](Oc1cc(-c2cnn(C3CCNCC3)c2)cnc1N)c1c(Cl)ccc(F)c1Cl", 1],
  ["CC(=O)[C@H]1CC[C@H]2[C@@H]3C=CC4=CC(=O)CC[C@@]4(C)[C@@H]3CC[C@]12C", 0],
  ["CC(=C/[C@@H](C)C(=O)c1ccc(N(C)C)cc1)/C=C/C(=O)NO", 1]
]}

###

List of phenotypically active values.
Tested on: A549-GM130-SQSTM1
experimental.protocol: phenotypically active (imaging signature differs from DMSO and reproducible) at any of 0.3-9 uM (binary (1 = active, 0 = inactive)); higher = active
measurement.parameters: treatment time: 24 h
Structures can show the parent of a compound that is named as a salt.

{"columns": ["compound", "phenotypically active"],
 "data": [
  ["O=C(Nc1ccc(CN2CCOCC2)cc1)c1ccc(-c2cccc(Cl)c2)o1", 0],
  ["C[C@@H]1O[C@@H](OC[C@H]2O[C@@H](Oc3c(-c4ccc(O)c(O)c4)oc4cc(O)cc(O)c4c3=O)[C@H](O)[C@@H](O)[C@@H]2O)[C@H](O)[C@H](O)[C@H]1O [Quercétine-3-rutinoside]", 0],
  ["NC1(C(=O)N[C@@H](CCO)c2ccc(Cl)cc2)CCN(c2ncnc3[nH]ccc23)CC1", 1],
  ["OC[C@H]1NC[C@@H](O)[C@@H](O)[C@@H]1O [1-Deoxymannojirimycin hydrochloride]", 0],
  ["O=C(NCCN1CCC(n2c(=O)[nH]c3ccccc32)CC1)c1cc2cc(F)ccc2[nH]1", 1],
  ["CNC(=O)Nc1ccc(-c2nc(N3CC4CCC(C3)O4)c3cnn(C4CCC5(CC4)OCCO5)c3n2)cc1", 1],
  ["CC(C)[N+](C)(CCOC(=O)C1c2ccccc2Oc2ccccc21)C(C)C", 0],
  ["NCCCCNS(=O)(=O)c1ccc2c(Cl)cccc2c1 [W-13 hydrochloride]", 0]
]}

###

System: A549-GM130-SQSTM1
experimental.protocol: lowest phenotypically active concentration; higher = less potent
measurement.parameters: treatment time: 24 h
Counter-ions that a name gives are not always drawn.
property.name: lowest phenotypically active concentration (µM)

{"columns": ["compound", "system", "comparison.sign", "observed.result"],
 "data": [
  ["COc1cc(Br)c(Nc2nc(-c3c(C)nc4ncccn34)cs2)c(Br)c1", "A549-GM130-SQSTM1", "=", 1],
  ["NC1(C(=O)N[C@@H](CCO)c2ccc(Cl)cc2)CCN(c2ncnc3[nH]ccc23)CC1", "A549-GM130-SQSTM1", "=", 1],
  ["CNCCC(Oc1ccc(C(F)(F)F)cc1)c1ccccc1 (centres undefined)", "A549-GM130-SQSTM1", "=", 9],
  ["Cc1cc(Nc2cc(C)c(C#N)c(NC(C)CCCC(C)(C)O)n2)n[nH]1 (centres undefined) [TC-A 2317 hydrochloride]", "A549-GM130-SQSTM1", "=", 1],
  ["CCOP(=O)(OCC)C(=Cc1cc(C(C)(C)C)c(O)c(C(C)(C)C)c1)P(=O)(OCC)OCC", "A549-GM130-SQSTM1", "=", 9],
  ["COc1cc(C(C)=O)ccc1OCCCN1CCC(c2noc3cc(F)ccc23)CC1", "A549-GM130-SQSTM1", "=", 9],
  ["C[C@@H]1COCCN1c1cc(C2(S(C)(=O)=O)CC2)nc(-c2cccc3[nH]ccc23)n1", "A549-GM130-SQSTM1", "≤", 0.3],
  ["Cc1c(NC(=O)OC[C@@H]2COCCN2)cn2ncnc(Nc3ccc4c(cnn4Cc4cccc(F)c4)c3)c12", "A549-GM130-SQSTM1", "=", 1],
  ["CC(=O)c1c(C)c2cnc(Nc3ccc(N4CCNCC4)cn3)nc2n(C2CCCC2)c1=O", "A549-GM130-SQSTM1", "≤", 0.3]
]}
